Values were extracted from the supplement of paper PMC10307832.

# System: NCI-H1793
# method_summary: relative viability (nuclei count vs DMSO), 5 days (fraction); higher = more cells survive
# test_parameters: first compound 0.1 µM
assay_readout: relative viability
No unit in the answer, please; the number alone is enough.

For this compound ( Cc1cn(-c2cc(NC(=O)c3ccc(C)c(Nc4nccc(-c5cccnc5)n4)c3)cc(C(F)(F)F)c2)cn1 [Nilotinib] + CS(=O)(=O)CCNCc1ccc(-c2ccc3ncnc(Nc4ccc(OCc5cccc(F)c5)c(Cl)c4)c3c2)o1 [Lapatinib] (partner 2 µM) ), measured relative viability is 0.21

So for Cc1cn(-c2cc(NC(=O)c3ccc(C)c(Nc4nccc(-c5cccnc5)n4)c3)cc(C(F)(F)F)c2)cn1 [Nilotinib] + C[C@]1(O)C[C@@H](c2nc(-c3ccc4ccc(-c5ccccc5)nc4c3)c3c(N)nccn32)C1 [Linsitinib] (partner 1 µM) , the logged relative viability turned out to be 0.443

// Cc1cn(-c2cc(NC(=O)c3ccc(C)c(Nc4nccc(-c5cccnc5)n4)c3)cc(C(F)(F)F)c2)cn1 [Nilotinib] + CCNC(=O)c1noc(-c2cc(C(C)C)c(O)cc2O)c1-c1ccc(CN2CCOCC2)cc1 [Luminespib] (partner 0.01 µM) : relative viability value = 0.166

* * *

# System: SK-LU-1
# method_summary: relative viability (nuclei count vs DMSO), 5 days (fraction); higher = more cells survive
# test_parameters: first compound 0.02 µM
Binary label based on relative viability with cut-off 0.4: below gives rule met, not below gives rule not met.

Decide: relative viability of CCNC(=O)c1noc(-c2cc(C(C)C)c(O)cc2O)c1-c1ccc(CN2CCOCC2)cc1 [Luminespib] + CC(=O)Nc1cccc(-n2c(=O)n(C3CC3)c(=O)c3c(Nc4ccc(I)cc4F)n(C)c(=O)c(C)c32)c1 [Trametinib] (partner 0.02 µM) strictly below 0.4? rule met

Input CN1CCN(CCOc2cc(OC3CCOCC3)c3c(Nc4c(Cl)ccc5c4OCO5)ncnc3c2)CC1 [Saracatinib] + CC(=O)Nc1cccc(-n2c(=O)n(C3CC3)c(=O)c3c(Nc4ccc(I)cc4F)n(C)c(=O)c(C)c32)c1 [Trametinib] (partner 0.02 µM) ; condition: relative viability strictly below 0.4. Does it hold? rule not met

# TODO verify relative viability < 0.4 strictly for this compound: CCNC(=O)c1noc(-c2cc(C(C)C)c(O)cc2O)c1-c1ccc(CN2CCOCC2)cc1 [Luminespib] + C[C@@H](Oc1cc(-c2cnn(C3CCNCC3)c2)cnc1N)c1c(Cl)ccc(F)c1Cl [Crizotinib] (partner 1 µM) rule not met

Does CN1CCN(CCOc2cc(OC3CCOCC3)c3c(Nc4c(Cl)ccc5c4OCO5)ncnc3c2)CC1 [Saracatinib] + CC(C)C[C@H](NC(=O)[C@H](Cc1ccccc1)NC(=O)c1cnccn1)B(O)O [Bortezomib] (partner 0.002 µM) have relative viability strictly under 0.4? rule not met

Criterion: relative viability strictly below 0.4. Is it met by CCNC(=O)c1noc(-c2cc(C(C)C)c(O)cc2O)c1-c1ccc(CN2CCOCC2)cc1 [Luminespib] + O=C(CCCCCCC(=O)Nc1ccccc1)NO [Vorinostat] (partner 1 µM) ? rule not met

Dear reviewer, please state whether CCNC(=O)c1noc(-c2cc(C(C)C)c(O)cc2O)c1-c1ccc(CN2CCOCC2)cc1 [Luminespib] + Cc1nc(NC(=O)N2CCC[C@H]2C(N)=O)sc1-c1ccnc(C(C)(C)C(F)(F)F)c1 [Alpelisib] (partner 2 µM) has relative viability strictly beneath 0.4. rule met

Bench note: check whether CN1CCN(CCOc2cc(OC3CCOCC3)c3c(Nc4c(Cl)ccc5c4OCO5)ncnc3c2)CC1 [Saracatinib] + CCNC(=O)c1noc(-c2cc(C(C)C)c(O)cc2O)c1-c1ccc(CN2CCOCC2)cc1 [Luminespib] (partner 0.01 µM) shows relative viability below 0.4 rule met

hey, is relative viability for CN1CCN(CCOc2cc(OC3CCOCC3)c3c(Nc4c(Cl)ccc5c4OCO5)ncnc3c2)CC1 [Saracatinib] + CS(=O)(=O)N1CCN(Cc2cc3nc(-c4cccc5[nH]ncc45)nc(N4CCOCC4)c3s2)CC1 [Pictilisib] (partner 1 µM) lower than 0.4 or not? rule not met

* * *

# Tested on: NCI-H23
# method_summary: relative viability (nuclei count vs DMSO), 5 days (fraction); higher = more cells survive
# test_parameters: first compound 0.2 µM
assay_readout: relative viability
API note: the answer field is a bare number with no unit suffix.

Memo: CCNC(=O)c1noc(-c2cc(C(C)C)c(O)cc2O)c1-c1ccc(CN2CCOCC2)cc1 [Luminespib] + CS(=O)(=O)N1CCN(Cc2cc3nc(-c4cccc5[nH]ncc45)nc(N4CCOCC4)c3s2)CC1 [Pictilisib] (partner 1 µM) , reported relative viability: 0.157

The recorded relative viability for entry CCNC(=O)c1noc(-c2cc(C(C)C)c(O)cc2O)c1-c1ccc(CN2CCOCC2)cc1 [Luminespib] + Cc1nc(Nc2ncc(C(=O)Nc3c(C)cccc3Cl)s2)cc(N2CCN(CCO)CC2)n1 [Dasatinib] (partner 0.075 µM) equals 0.13

* * *

# Test system: NCI-H1650
# method_summary: relative viability (nuclei count vs DMSO), 5 days (fraction); higher = more cells survive
# test_parameters: first compound 20 µM
assay_readout: relative viability

The compound identified as Cc1csc(=NC2CCCCC2)n1/N=C/c1ccc(O)c(O)c1O [MIM1] + O=C(c1cc(Cc2n[nH]c(=O)c3ccccc23)ccc1F)N1CCN(C(=O)C2CC2)CC1 [Olaparib] (partner 8 µM) registered its relative viability at 0.233

In plain terms, Cc1csc(=NC2CCCCC2)n1/N=C/c1ccc(O)c(O)c1O [MIM1] + CC1(C)CCC(c2ccc(Cl)cc2)=C(CN2CCN(c3ccc(C(=O)NS(=O)(=O)c4ccc(N[C@H](CCN5CCOCC5)CSc5ccccc5)c(S(=O)(=O)C(F)(F)F)c4)cc3)CC2)C1 [Navitoclax] (partner 0.5 µM) has a documented relative viability of 0.202

* * *

# Tested on: NCI-H2126
# method_summary: relative viability (nuclei count vs DMSO), 5 days (fraction); higher = more cells survive
# test_parameters: first compound 8 µM
assay_readout: relative viability
Give the figure by itself; no unit, no explanation.

For this compound ( Nc1cccc2c1CN(C1CCC(=O)NC1=O)C2=O (stereo not drawn) [Lenalidomide] + COc1cc2c(Oc3ccc(NC(=O)C4(C(=O)Nc5ccc(F)cc5)CC4)cc3F)ccnc2cc1OCCCN1CCOCC1 [Foretinib] (partner 0.25 µM) ), measured relative viability is 1.14

Per the records, this compound ( Nc1cccc2c1CN(C1CCC(=O)NC1=O)C2=O (stereo not drawn) [Lenalidomide] + C[C@@H](Oc1cc(-c2cnn(C3CCNCC3)c2)cnc1N)c1c(Cl)ccc(F)c1Cl [Crizotinib] (partner 1 µM) ) has relative viability equal to 0.993

Item: Nc1cccc2c1CN(C1CCC(=O)NC1=O)C2=O (stereo not drawn) [Lenalidomide] + CS(=O)(=O)N1CCN(Cc2cc3nc(-c4cccc5[nH]ncc45)nc(N4CCOCC4)c3s2)CC1 [Pictilisib] (partner 1 µM) | relative viability: 0.421

* * *

# Test system: NCI-H1755
# method_summary: relative viability (nuclei count vs DMSO), 5 days (fraction); higher = more cells survive
# test_parameters: first compound 0.03162 µM
Label condition met when relative viability is strictly below 0.6; otherwise label condition not met.

Could you please tell me whether relative viability recorded for Cc1cn(-c2cc(NC(=O)c3ccc(C)c(Nc4nccc(-c5cccnc5)n4)c3)cc(C(F)(F)F)c2)cn1 [Nilotinib] + CC(C)C[C@H](NC(=O)[C@H](Cc1ccccc1)NC(=O)c1cnccn1)B(O)O [Bortezomib] (partner 0.002 µM) is less than 0.6? condition not met

Determine if Cc1cn(-c2cc(NC(=O)c3ccc(C)c(Nc4nccc(-c5cccnc5)n4)c3)cc(C(F)(F)F)c2)cn1 [Nilotinib] + CC1(C)CCC(c2ccc(Cl)cc2)=C(CN2CCN(c3ccc(C(=O)NS(=O)(=O)c4ccc(N[C@H](CCN5CCOCC5)CSc5ccccc5)c(S(=O)(=O)C(F)(F)F)c4)cc3)CC2)C1 [Navitoclax] (partner 0.5 µM) shows relative viability strictly lower than 0.6. condition not met

Dear colleague, could you confirm whether relative viability of Cc1cn(-c2cc(NC(=O)c3ccc(C)c(Nc4nccc(-c5cccnc5)n4)c3)cc(C(F)(F)F)c2)cn1 [Nilotinib] + Nc1ncn([C@H]2C[C@H](O)[C@@H](CO)O2)c(=O)n1 [Decitabine] (partner 2 µM) falls below 0.6? Thanks. condition not met

Bench note: check whether Cc1cn(-c2cc(NC(=O)c3ccc(C)c(Nc4nccc(-c5cccnc5)n4)c3)cc(C(F)(F)F)c2)cn1 [Nilotinib] + Nc1nc2[nH]cc(CCc3ccc(C(=O)N[C@@H](CCC(=O)O)C(=O)O)cc3)c2c(=O)[nH]1 [Pemetrexed] (partner 0.2 µM) shows relative viability below 0.6 condition met

Does the reported relative viability of the following molecule sit strictly below 0.6? Cc1cn(-c2cc(NC(=O)c3ccc(C)c(Nc4nccc(-c5cccnc5)n4)c3)cc(C(F)(F)F)c2)cn1 [Nilotinib] + COc1cccc2cc(-c3nc([C@H]4CC[C@H](C(=O)O)CC4)n4ncnc(N)c34)[nH]c12 [OSI-027] (partner 0.5 µM) condition met
